test: solvent given as SMILES; details: in CC#N
ATTRIBUTE_MEASURED: absorption maximum (nm)
Expressed in nm, but write only the number.

Here is how some molecules turned out for absorption maximum.
O=S(=O)([O-])c1ccc(O)c2ccccc12 | 322
Cc1cccc(C2=CC3=C(c4c(C)cc(C)cc4C)c4cc(-c5cccc(C)c5)c(-c5cccc(C)c5)n4[B-](F)(F)[N+]3=C2c2cccc(C)c2)c1 | 559

Need absorption maximum, item COC1(OC)C2(Cl)c3nc4cc(-c5cccs5)ccc4nc3C1(Cl)C1C[C@H]3[C@@H](CC12)C1(Cl)c2nc4ccc(-c5cccs5)cc4nc2C3(Cl)C1(OC)OC (stereo partly drawn) 366

Need absorption maximum, item `C(=C\c1c2ccccc2cc2ccccc12)/c1cnc2ccccc2c1` 386

Need absorption maximum, item `O=c1oc2ccc(Br)cc2cc1-c1cc2cc(Br)ccc2o1` 370

Need absorption maximum, item `COC(=O)c1cc(=O)n(C)c2cc(-c3ccccc3)sc12` 392

Need absorption maximum, item `CCN(CC)c1ccc([N+]2=Cc3ccc4c5c(ccc4c3O[B-]2(c2ccccc2)c2ccccc2)C=[N+](c2ccc([N+](=O)[O-])cc2)[B-](c2ccccc2)(c2ccccc2)O5)cc1` 539

Need absorption maximum, item `CCN(CC)c1ccc(/C=N/CC/N=C/c2ccc(N(CC)CC)cc2O)c(O)c1` 339

----------
assay: solvent given as SMILES; conditions: in CS(C)=O
Please enter TRUE where absorption maximum is greater than or equal to 400 nm, and FALSE where it is lower.

CCN(CC)c1ccc(/N=N/c2cc3c(=O)[nH][nH]c(=O)c3cc2[N+](=O)[O-])c(NC(C)=O)c1 | TRUE

API: above_or_equal(metric=absorption maximum, cutoff=400 nm) for item COC(=O)C(Cc1ccc2oc(-c3ccc(N(C)C)cc3)nc2c1)NC(=O)OC(C)(C)C (stereo not given) FALSE

API: above_or_equal(metric=absorption maximum, cutoff=400 nm) for item `CC1=N/C(=C\c2ccc(N(C)C)cc2)C(=O)N1C` TRUE

API: above_or_equal(metric=absorption maximum, cutoff=400 nm) for item `Cc1cc2c(cc1C)NC(=O)CC(=O)N2` FALSE

API: above_or_equal(metric=absorption maximum, cutoff=400 nm) for item `CN(C)c1ccc(/C=C/c2cccnn2)cc1` FALSE

API: above_or_equal(metric=absorption maximum, cutoff=400 nm) for item `N#Cc1nnn(-c2ccnc3cc(Cl)ccc23)c1N` FALSE

API: above_or_equal(metric=absorption maximum, cutoff=400 nm) for item `CCN(CC)c1ccc2c(c1)oc(=O)c1c(=O)oc3cc([N+](=O)[O-])ccc3c12` TRUE

----------
experiment: solvent given as SMILES; conditions: in CCCCOCCCC
Measured absorption maximum by item
Expressed in nm, but write only the number.

O=c1c2ccccc2n2c3ccccc3c(=O)c3cc(-c4ccccc4)cc1c32 | 440
CN(C)c1ccc(/C=C/c2ccc(C#N)cc2)cc1 | 380
c1ccc2nc3cccc(-c4ccc(-n5c6ccccc6c6ccccc65)cc4)c3cc2c1 | 359
CC(C)(C)c1ccc(-c2nc3c4ccc(-c5ccccc5)cc4c4cc(-c5ccccc5)ccc4c3n2-c2ccc(C(C)(C)C)cc2)cc1 | 331

Attention now turns to another entry.
Need absorption maximum, item `c1ccc(Nc2nc(Nc3ccccc3)nc(Nc3ccc4ccc5cccc6ccc3c4c56)n2)cc1` 342
